Quick list: OD450 per entry.
Target: T1, Peptide 4: Biotin-AGGGGSGGGGSGGGGSAAA-Tyr-acid (N-terminal biotin; C-terminal acid; no PC)
T1 construct: control peptide without PC
T1 peptide: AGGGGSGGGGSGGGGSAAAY
Assay: scFv ELISA
Field format: number, assumed OD450, no unit text.

[
  {
    "BINDER": "PcOxP_DB03_H09 (scFv, V domains shown, scFv in periplasmic extract) VH: EVQLLESGGGLVQPGGSLRLSCAASGFTFSDAYMEWVRQAPGKGLEWVAASRNKANSYTTEYADSVKGRFTISRDNSKNTLYLQMNSLRAEDTAVYYCARDYYGSSYWYFDVWGQGTLVTVSS VL: DIQMTQSPSSLSASVGDRVTITCTASESLYSSKHKVHYLAWYQQKPGKAPKLLIYGASNRYIGVPSRFSGSGSGTDFTLTISSLQPEDFATYYCAEFYSYPLTFGGGTKVEIK",
    "MEASURED NUMBER": 0.06
  }
]

Please examine the following record next.
Prompt: Need OD450 of PcOxP_DB01_G05 (scFv, V domains shown, scFv in periplasmic extract) VH: EVQLLESGGGLVQPGGSLRLSCAASGFTFSSYYMEWVRQAPGKGLEWVAASRNKANEYTTEYADSVKGRFTISRDNSKNTLYLQMNSLRAEDTAVYYCARDYYGSSYWYFDVWGQGTLVTVSS VL: DIVMTQSPDSLAVSLGERATINCTASESLYSSKHKVHYLAWYQQKPGQPPKLLIYGASNRYIGVPDRFSGSGSGTDFTLTISSLQAEDVAVYYCANFYSYPLTFGGGTKVEIK , thanks.
Response: 0.05
